assay: Plasma concentrations during 7-day oral dosing in beagle dogs; assay type: in vivo; details: male, beagle, dog, in vivo, po, 1.5 mg/kg/day, Plasma concentration of Compound 1, Mean
Result type: concentration at 4 h (ng/mL)
Answer format: numeric, ng/mL implied, no suffix.

Reported concentration at 4 h of `Cc1noc([C@@]23CNC[C@@H]2C3)n1` : 98.6

---

experiment: in vivo; conditions: cynomolgus monkey, po, 0.3 mg/kg
Result type: AUC(0-t) (ng·h/mL)
Answer format: numeric, ng·h/mL implied, no suffix.

Reported AUC(0-t) of `Cc1noc([C@@]23CNC[C@@H]2C3)n1` : 208
